targetOrTestSystem: human Claudin18.2 (human)
measurementProtocol: cell-based or functional assay
measuredParameter: CDC % Relative activity (%)
Report only the number, with the unit % understood.

Observe how each entry below is paired with its result.
>  <binder>
chimeric 237D2A4 (antibody, human IgG1, kappa, V domains shown, chimeric, human IgG1/kappa constant regions; also called 237D2A4-Chimeric) VH: QVQLKESGPGLVAPSQSLSITCTVSGFSLTSYGVSWVRQPPGKGLEWLGVIWGDGSTNYHSTLISRLRISKDKSKSQVFLKLNSLQTDDTATYYCAKAGRGNALDYWGQGTSVTVSS VL: DIVMTQSPSSLTVTAGEKVTMSCKSSQSLLNSGNQKNYLTWYQQKPGQPPKLLIYWASTRESGVPDRFTGSGSGTDFTLTISSVQAEDLAVYYCQNDYSFPLTFGAGTKLELKR

>  <CDC % Relative activity / %>
1170

$$$$
>  <binder>
chimeric 203A6C9 (antibody, human IgG1, kappa, V domains shown, chimeric, human IgG1/kappa constant regions) VH: QVQLKQSGPGLVQPSQSLSITCTVSGFSLTRYGVHWVRQSPGKGLEWLGVIWSGGNTDYNAAFISRLNIRKDNSKSQVFFKMNSLKPNDTAIYYCARAAYFGNSFDYWGQGTTLTVSS VL: DIVMTQSPSSLPVTAGEKVTMSCKSSQSLLNSGNQKNYLTWYQQKPGQPPKLLIYWASTRDSGVPDRFTGSGSGTDFTLTISSVQAEDLAVYYCQNNYIYPLTFGAGTKLELKR

>  <CDC % Relative activity / %>
1040

$$$$

Turning now to a further record.
Input line: Reported CDC % Relative activity for chimeric 246B5F2 (antibody, human IgG1, kappa, V domains shown, chimeric, human IgG1/kappa constant regions; also called 246B5F2-Chimeric) VH: EVMLVESGGGLMKPGGSLKLSCAASEFTFSNYAMSWVRQTPEKRLEWVATISSGRSSTYYPDSVKGRFTISRDNAKNTLYLQMSSLRSEDTAMYYCAGLGRGNAMEYWGQGTSVTVSS VL: DIVMTQSPSSLTVTAGEKVTLSCKSSQSLLNSGNQKNYLTWYQQKPGQPPKLLIYWASTRESGVPDRFTGSGSGTDFILTINSVQAEDLAVYYCQNAYSYPFTFGSGTKLEIKR : what is it?
Output line: 985
